# credit: patent US20250346579A1

Measured AUC, listed per entry.
METHOD NOTES: Pharmacokinetic study in ICR mice
Format: in vivo
CONDITION SET: male, mouse, supernatant of centrifuged blood, PO 10 mg/kg
From the text: […]
State the answer as a number, implicitly in µg·h/mL.

- COMPOUND: "C[C@@H](CN1CC(C(=O)N2CCN(c3ncc(C(F)(F)F)cn3)CC2)C1)Nc1cn[nH]c(=O)c1C(F)(F)F [I-A-1]"
  DISPLAY UNIT: "µg·h/mL"
  AUC: 5.66

# input Quick one: give measured AUC for C[C@@H](COCCC(=O)N1CCN(c2ncc(C(F)(F)F)cn2)CC1)Nc1cn[nH]c(=O)c1C(F)(F)F [RBN-2397, reference compound]
# output 0.656
